# Tested on: HCT-116 colon
# assay_details: NCI tumour cell line growth inhibition, 48 h
The reader will find reported TGI values listed item by item below.
measured_property: TGI

molecule="Cc1cc(O)c(C=O)c2c1C(=O)Oc1c(CO)c(O)c3c(c1O2)C(O)OC3=O (stereo not given)" measured="> 100 µM"
molecule="C=C1C(O)C23CCC4C(C(=O)O)(C(=O)O)CC(OC5OC(CO)C(O)C(OC(=O)CCc6ccccc6)C5NC(=O)CC(C)C)CC4(C)C2CCC1(O)C3 (stereo not given)" measured="> 100 µM"
molecule=S=C(S)N1CCN(c2cccc(Cl)c2)CC1 measured="> 100 µM"
molecule=CN(C)CCC=C1c2ccccc2C=Cc2ccccc21 measured="30.7 µM"
molecule=COc1ccc(-c2cc(=O)c3c(OC)cccc3o2)c(OC)c1OC measured="> 100 µM"
molecule=CC(C)(C)C(=O)N(C(=S)OCc1ccccn1)c1ccccc1 measured="52.3 µM"
molecule="CC1CC(c2ccc([N+](=O)[O-])cc2)=Nc2ccccc2S1 (stereo not given)" measured="3.56 µM"
molecule="COc1ccc(C2[C@H]3C(=O)N(c4ccc(Cc5ccc(N6C(=O)[C@@H]7ON(c8ccccc8)C(c8ccc(OC)cc8)[C@@H]7C6=O)cc5)cc4)C(=O)[C@H]3ON2c2ccccc2)cc1 (stereo not given in full)" measured="> 100 µM"
molecule="CC(CC[C@@H](C)C1CCC2[C@@H]3CC(O)C4CC(O)[C@@H](O)C[C@]4(C)C3CC[C@@]21C)C(C)(C)C (stereo not given in full)" measured="> 100 µM"
molecule=O=C1CCCCCCCCCCC(=O)N2CCOCCOCCN1Cc1cccc(n1)C2 measured="> 100 µM"
molecule=O=C(COc1ccc(/C=C/C(=O)c2ccc(Cl)cc2)cc1)Nc1c(Cl)cccc1Cl measured="> 100 µM"
molecule=CCOC(=O)C1=C(NC(C)(C)C)OC/C1=N\NC(=O)Cc1ccccc1 measured="> 100 µM"
molecule="O=C(CC1C(=O)Nc2ccccc2S1=O)Nc1ccccc1 (stereo not given)" measured="> 100 µM"
molecule=Clc1ccc(-c2cc(-c3cc(-c4ccc(Cl)cc4)n[nH]3)[nH]n2)cc1 measured="> 100 µM"
molecule="CC(C)(C)C1CCC2c3c([nH]c4ccccc34)C3C(=O)N(c4cccc([N+](=O)[O-])c4)C(=O)C3C2C1 (stereo not given)" measured="40.4 µM"
molecule=Cc1ccc2nc(-c3ccc(N)c(Br)c3)sc2c1 measured="> 100 µM"
molecule=Cc1ccc([N+](=O)[O-])cc1S(=O)(=O)Nc1ccc(C(=O)/C=C/c2cccs2)cc1 measured="35.8 µM"
molecule="N#CC1CNC(N)NC1N (stereo not given)" measured="> 100 µM"
molecule=CN(C)CCCOc1ccc(OCCCN(C)C)c2c1C(=O)c1ccccc1C2=O measured="10.3 µM"
molecule=CCN(CC)C(=O)C[n+]1c2ccccc2n2cc(N)ccc21 measured="> 100 µM"

---

# Tested on: HL-60(TB) leukemia
# assay_details: NCI tumour cell line growth inhibition, 48 h
measured_property: GI50

smiles_code=CCCS(=O)(=O)Nc1ccc(F)c(C(=O)c2c[nH]c3ncc(Cl)cc23)c1F target_system="HL-60(TB) leukemia" measured="20 µM"
smiles_code=C(#Cc1cnccn1)/C=C\C#Cc1cnccn1 target_system="HL-60(TB) leukemia" measured="24.1 µM"
smiles_code=CCCCN1CCN(c2ccc3nc(-c4ccc5nc(-c6ccc(OC)c(OC)c6)[nH]c5c4)[nH]c3c2)CC1 target_system="HL-60(TB) leukemia" measured="0.646 µM"
smiles_code=CCOc1nc(-c2ccccc2)cc2c(O)c(C(=O)N/N=C/c3ccc(O)cc3O)[nH]c(=O)c12 target_system="HL-60(TB) leukemia" measured="1.44 µM"
smiles_code=O=C(Nc1ccc(CN2CCOCC2)cc1)c1ccc(-c2cc(Cl)ccc2Cl)o1 target_system="HL-60(TB) leukemia" measured="4.45 µM"
smiles_code=O=C(/C=C/c1ccc(Cl)cc1)/C=C/c1cc2ccccc2[nH]c1=O target_system="HL-60(TB) leukemia" measured="2.83 µM"
smiles_code=ClCc1ccc(-c2ccc(Cn3cnc4nc(Cl)nc(Cl)c43)cc2)cc1 target_system="HL-60(TB) leukemia" measured="12.3 µM"
smiles_code=COc1ccc2[nH]c(-c3ccccc3)c(/C=C(\C#N)S(=O)(=O)c3ccccc3)c2c1 target_system="HL-60(TB) leukemia" measured="2.38 µM"
smiles_code=O=C1C=CC(=O)N1C1CCCCCCCCCCC1 target_system="HL-60(TB) leukemia" measured="5.25 µM"
smiles_code=CN1CCc2c(c3ccccc3c3ccccc23)C1 target_system="HL-60(TB) leukemia" measured="3.32 µM"

---

# System: SF-539 CNS
# assay_details: NCI tumour cell line growth inhibition, 48 h
Listing of recorded TGI by entry.
measured_property: TGI (µM)

compound="OC1(c2ccccc2)c2ccccc2NC2=NCCN21 (stereo not given)" measured_property=TGI qualifier=> measured=100
compound="COc1ccc2[nH]c(S(=O)(=O)N3CC(CCl)c4ccc(N)cc43)cc2c1 (stereo not given)" measured_property=TGI qualifier== measured=12.7
compound=Oc1ccc2ccccc2c1CN(Cc1c(O)ccc2ccccc12)C1CCCCC1 measured_property=TGI qualifier== measured=29.4
compound=COC(=O)[C@H](NC(=O)OC(C)(C)C)[C@H]1COC(C)(C)O1 measured_property=TGI qualifier=> measured=100
compound="CC1CC(c2ccc([N+](=O)[O-])cc2)=Nc2ccccc2S1 (stereo not given)" measured_property=TGI qualifier== measured=32.9
compound=Cn1c(=O)[nH]c2nccnc2c1=O measured_property=TGI qualifier=> measured=10
compound=CC(C)[C@]12O[C@H]1[C@@H]1O[C@@]13[C@@]1(C)CCC4=C(COC4=O)[C@@H]1C[C@@H]1O[C@@]13C2=O measured_property=TGI qualifier== measured=0.0428
compound=CCN(CC)C(=O)C[n+]1c2ccccc2n2cc(N)ccc21 measured_property=TGI qualifier=> measured=100
compound=COc1ccccc1/C=C1\Sc2scc(-c3ccc(O)c(O)c3)[n+]2C1=O measured_property=TGI qualifier== measured=55.8
compound="COc1ccc(C2[C@H]3C(=O)N(c4ccc(Cc5ccc(N6C(=O)[C@@H]7ON(c8ccccc8)C(c8ccc(OC)cc8)[C@@H]7C6=O)cc5)cc4)C(=O)[C@H]3ON2c2ccccc2)cc1 (stereo not given in full)" measured_property=TGI qualifier=> measured=100
compound="C=C1C(O)C23CCC4C(C(=O)O)(C(=O)O)CC(OC5OC(CO)C(O)C(OC(=O)CCc6ccccc6)C5NC(=O)CC(C)C)CC4(C)C2CCC1(O)C3 (stereo not given)" measured_property=TGI qualifier=> measured=100
compound=CCOC(=O)N1C/C(=C/c2ccc(F)cc2)C(=O)/C(=C/c2ccc(F)cc2)C1 measured_property=TGI qualifier== measured=3.3
compound=COc1ccc(C(N)=O)c(OC)c1OCc1ccccc1 measured_property=TGI qualifier=> measured=100
compound=Cc1cc(N(CCC#N)CCC#N)ccc1/C=C\C(=O)Nc1ccccc1 measured_property=TGI qualifier=> measured=100
compound=CCN(CC)CCOc1ccc(N2C(=O)c3cccc4cc([N+](=O)[O-])cc(c34)C2=O)cc1 measured_property=TGI qualifier== measured=25.1
compound=COc1cc(C(=O)NC(CCN)(c2ccccc2)c2ccccc2)cc(OC)c1OC measured_property=TGI qualifier=> measured=100
compound=Fc1cnc(NC2CC2)nc1-c1cnc2ccc(N3CCOCC3)cn12 measured_property=TGI qualifier== measured=0.538
compound=CCN(CC)Cc1cc(Nc2c3ccccc3nc3c4ccccc4n(C)c23)cc(CN(CC)CC)c1O measured_property=TGI qualifier== measured=15.2
compound=O=[N+]([O-])c1ccccc1S(=O)(=O)c1cc(O)cc2c1NCCC2 measured_property=TGI qualifier== measured=34.8
compound=O=S(=O)(O)SC/C=C\CSS(=O)(=O)O measured_property=TGI qualifier=> measured=100

---

# Test system: UACC-62 melanoma
# assay_details: NCI tumour cell line growth inhibition, 48 h; in the data active = GI50 below about 0.43 µM; inactive = the rest
*1 amine or outer side, *2 acyl side, *3 side chain or, on linkers, in order; H or OH if unused. Where a SMILES comes first, the peptide text is derived from it. Bridges are numbered along the chain shown (N, C = ends). [ ]: non-standard residue; d: D form. Adda = CO[C@@H](Cc1ccccc1)[C@@H](C)/C=C(C)/C=C/[C@H](N[*:1])[C@H](C)C(=O)[*:2]; dAsp(3S-Me) = C[C@H](C(=O)[*:3])[C@@H](N[*:1])C(=O)[*:2]; d(γGlu) = O=C(O)[C@@H](CCC(=O)[*:2])N[*:1]; NMeDha = C=C(NC)C(=O)O
Outcome codes: y (active), n (inactive)

compound="C=C1C(=O)N[C@H](C)C(=O)N[C@@H](CC(C)C)C(=O)N[C@@H](C(=O)O)[C@H](C)C(=O)N[C@@H](CCCN=C(N)N)C(=O)N[C@@H](/C=C/C(C)=C/[C@H](C)[C@H](Cc2ccccc2)OC)[C@H](C)C(=O)N[C@@H](C(=O)O)CCC(=O)N1C (R[Adda][d(γGlu)][NMeDha][dA]L[dAsp(3S-Me)]-OH; lactam N-7)" assigned_category=n
compound=NCCN.NCCN.[Cl-].[O]=[Os+2]=[O] assigned_category=n
compound=CCN1CCN(c2cc(C)nc(N(CCNc3ccnc4cc(Cl)ccc34)Cc3ccc4c(c3)OCO4)n2)CC1 assigned_category=n
compound=COc1cc2ncn(-c3cc(O[C@H](C)c4ccccc4Cl)c(C(N)=O)s3)c2cc1OC assigned_category=y
compound="CC(=O)O[C@H]1CCC2(C)C(=CCC3C2CCC2(C)/C(=N/OC(=O)c4ccc(N(CCCl)CCCl)cc4)CCC32)C1 (stereo partly drawn)" assigned_category=n
compound=O=C1Nc2cc(Cl)ccc2/C1=C\c1c(-c2ccc(F)cc2)nc2ccccn12 assigned_category=n
compound=CN1CCc2c(c3ccccc3c3ccccc23)C1 assigned_category=n
compound=O=C(N/N=C/c1ccccc1O)c1ccccc1O assigned_category=n
